Test system: FaDu cells
ASSAY TEXT: IC50 assay (inhibition of proliferation, 4 h exposure, SRB)
Type: cell-based
TEST SETTINGS: Homo sapiens, 4 h, pHe 7.4, 4 h, oxic, read-out: Oxic IC50
READOUT NAME: IC50

Field: example entries. Status: answers known.
chemical_string=COC(=O)CNc1n[n+]([O-])c2cc3c(cc2[n+]1[O-])CCC3 result="> 0.053 mM"
chemical_string=O=C(O)CCc1n[n+]([O-])c2cc3c(cc2[n+]1[O-])CCC3 result="> 7 mM"

Next, consider the following compound.
Which IC50 is reported for this compound? `O=C(O)CNc1n[n+]([O-])c2ccccc2[n+]1[O-]`
> 2 mM
